The origin of these recorded values is paper PMC6016464.

TESTED ON: T1, A1 protein (mouse, residues 1-152, P104K C113S, used as wild type) (mouse)
T1 sequence (Q07440 1-152 with P104K C113S, looked up): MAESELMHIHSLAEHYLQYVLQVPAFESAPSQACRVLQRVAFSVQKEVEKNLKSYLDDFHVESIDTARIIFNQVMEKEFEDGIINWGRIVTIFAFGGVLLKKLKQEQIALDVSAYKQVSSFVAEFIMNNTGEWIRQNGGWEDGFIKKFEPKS
EXPERIMENTAL PROTOCOL: stopped-flow fluorescence kinetics + other: fluorescence dissociation kinetics with competitor; Kd calculated as the ratio koff/kon of the kinetic rate constants; 25 °C; 50 mM sodium phosphate, 0.05% (v/v) Tween 20, pH 7.0
Where no end group is shown, it is not given here. The star is where a group is joined. TAMRA = 5-carboxytetramethylrhodamine, CN(C)c1ccc2c(-c3ccc(C(=O)*)cc3C(=O)[O-])c3ccc(=[N+](C)C)cc-3oc2c1
# Lookup of reported pKd keyed by entry
Units for pKd: none; it is -log10 of a concentration expressed in mol/L.

Solved cases below.
{TAMRA}-RVEEEEWAREIGAQLRAAADDLNAQYERRRQEEQH [PUMA R143A peptide (on the M144A wild type), TAMRA-labelled]	9.62
{TAMRA}-SESQEEIIHNIARHAAQIGDEMDHNIQPTLVRQLA (peptide, UniProt P70444 76-110, looked up, BID, mouse, residues 76-110, UniProt P70444; source: synthetic peptide (Biomatik)) [BID L90A peptide, TAMRA-labelled]	6.68
{TAMRA}-RVEEEEWAREIGAQLRRAADGLNAQYERRRQEEQH [PUMA D147G peptide (on the M144A wild type), TAMRA-labelled]	9.54

-- ask Endpoint output: pKd of {TAMRA}-SESQEEIIHNIAGHLAQIGDEMDHNIQPTLVRQLA (peptide, UniProt P70444 76-110, looked up, BID, mouse, residues 76-110, UniProt P70444; source: synthetic peptide (Biomatik)) [BID R88G peptide, TAMRA-labelled] . Value?
-- reply 9.22

-- ask Another binder: {TAMRA}-RVEEEEWAREIGAQLRRAADDLNAQYEARRQEEQH [PUMA R154A peptide (on the M144A wild type), TAMRA-labelled]
-- reply 9.95

-- ask Another binder: {TAMRA}-RVEEEAWAREIGAQLRRAADDLNAQYERRRQEEQH [PUMA E132A peptide (on the M144A wild type), TAMRA-labelled]
-- reply 10.06
